- target: CD14 (Homo sapiens, UniProt P08571)
- Construct: full-length human CD14 expressed in HEK293T cells, recombinant; His-tagged protein used in flow cytometry
- Sequence (P08571 20-345): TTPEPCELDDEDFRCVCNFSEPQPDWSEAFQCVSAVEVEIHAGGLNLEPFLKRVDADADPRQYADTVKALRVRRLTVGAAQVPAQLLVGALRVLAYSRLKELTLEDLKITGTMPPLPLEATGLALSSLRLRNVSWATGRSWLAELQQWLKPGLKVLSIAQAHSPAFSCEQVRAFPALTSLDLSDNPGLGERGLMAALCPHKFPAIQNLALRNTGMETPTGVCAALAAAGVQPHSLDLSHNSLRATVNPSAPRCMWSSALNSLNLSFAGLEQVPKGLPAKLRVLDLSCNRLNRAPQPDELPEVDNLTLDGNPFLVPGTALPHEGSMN
- testName: isothermal titration calorimetry
- Type: binding
propertyMeasured: Kd (µM)
The answer is to be given in µM; state only the numeric part.

Fill in: Kd of O=P(O)(O)O[C@H]1[C@H](OP(=O)(O)O)[C@@H](OP(=O)(O)O)[C@H](OP(=O)(O)O)[C@@H](OP(=O)(O)O)[C@H]1OP(=O)(O)O is ___
6.2

Source listed as paper PMC9287416.
